test: AUC in Sprague-Dawley rat at 5 mg/kg, po; format: ADME, organism-based; parameters: dose 5 mg/kg, route oral; details: plasma
Recorded Endpoint: AUC (ng·h/mL)
Report only the number, with the unit ng·h/mL understood.

Identify AUC associated with the molecule CN(C(=O)N1CCC(CN2C(=O)Nc3ccc(Cl)cc3S2(=O)=O)CC1)C1CCCCCC1
147

====

target: 11-beta-hydroxysteroid dehydrogenase type 2 (Homo sapiens, UniProt P80365); assay: Inhibition of human 11beta-HSD2 expressed in HEK293 cells assessed as [3H]cortisol production after 60 mins by SPA
Sequence (P80365 whole entry): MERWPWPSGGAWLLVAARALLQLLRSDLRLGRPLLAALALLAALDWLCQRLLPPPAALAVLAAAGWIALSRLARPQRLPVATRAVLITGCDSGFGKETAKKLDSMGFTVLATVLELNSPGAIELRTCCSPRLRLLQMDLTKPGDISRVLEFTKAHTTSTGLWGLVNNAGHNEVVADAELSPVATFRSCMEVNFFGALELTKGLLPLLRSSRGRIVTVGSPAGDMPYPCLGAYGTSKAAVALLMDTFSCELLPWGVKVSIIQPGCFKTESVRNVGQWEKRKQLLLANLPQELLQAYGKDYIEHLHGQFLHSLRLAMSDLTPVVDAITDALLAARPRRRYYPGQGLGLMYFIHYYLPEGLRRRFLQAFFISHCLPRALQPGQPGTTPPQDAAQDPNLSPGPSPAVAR
Recorded Endpoint: pEC50
The value called pEC50 is obtained by taking minus log10 of the concentration in mol/L.

>  <Compound>
O=C(N1CCC(CN2C(=O)Nc3ccc(Cl)cc3S2(=O)=O)CC1)N(C1CCCCC1)C1CC1

>  <pEC50>
5.66

$$$$
>  <Compound>
CN(C(=O)N1CCC(CN2C(=O)Nc3ccc(Cl)cc3S2(=O)=O)CC1)C1CCCCCC1

>  <pEC50>
6.07

$$$$

Please look at the following compound next.
Identify pEC50 associated with the compound CN(C(=O)N1CCC(CN2C(=O)Nc3ccc(Cl)cc3S2(=O)=O)CC1)C1C2CC3CC(C2)CC1C3 (stereo not drawn)
6.14
